Provenance of the data: patent US10053476B2

Listed below: melting point values for each entry.
Please give a number only; it is taken to be in °C.

These recorded examples may help you get a feel for the data.
# input compound: N[C@@H](Cn1cc(P(=O)(O)O)cn1)C(=O)O ; wanted: its melting point
200

# input compound: N[C@@H](Cc1cc(P(=O)(O)O)cs1)C(=O)O ; wanted: its melting point
260

Lab note: next compound to report on.
# input compound: N[C@@H](Cc1ccc(P(=O)(O)O)cn1)C(=O)O ; wanted: its melting point
270
